Assay: NCI Yeast Anticancer Drug Screen. Data for the CLN2oe strain (AID 163)
Conditions: S. cerevisiae CLN2oe strain, at 100.0 µM
Protocol: Growth inhibition of yeast strains with defined genetic alterations is measured as a screen for potential anti-cancer activity. Selected strains with alterations in DNA damage repair or cell cycle control were exposed to compounds and growth inhibition was measured relative to vehicle treated controls. The strain used in this assay is CLN2oe
Compounds without any hit were thinned out: in the full panel of roughly 79,000, 15% have a hit. The source made the active and inactive calls. Cut-off read from the data, not from the text of the source: active = growth inhibition above about 70%; inactive = the rest.
Output constraint: value belongs to active, inactive

Reference set (8 entries):
>>> class_name("c1ccc([P+](CCN2Cc3ccccc3C2)(c2ccccc2)c2ccccc2)cc1")
"active"
>>> class_name("O=C(Cc1ccccc1)NN1C(=O)C(Cl)C1c1cc(Br)cc(Br)c1O (centres undefined)")
"active"
>>> class_name("CC(C)OC(=O)NNc1cccc(Cl)c1")
"active"
>>> class_name("CCO/C=C1\\SC(=S)N(c2ccc(OCC)cc2)C1=O")
"inactive"
>>> class_name("C/C1=C/C2OC(=O)C3(C)C2C(CC2(C)OC1=CC2=O)OC3(O)C(C)C (centres undefined)")
"inactive"
>>> class_name("CC1(C)CC(=O)C(C(=O)Nc2cccs2)=C(O)C1")
"active"
>>> class_name("O=C1CC(C(O)(C(F)(F)F)C(F)(F)Cl)CCC1C(O)(C(F)(F)F)C(F)(F)Cl (centres undefined)")
"active"
>>> class_name("Nc1ccc(/C=C/c2ccc3cccnc3c2)cc1")
"inactive"

Fill in: this test's call for CN(C)CC1=Nc2cccc3cccc(c23)N1 is ___
inactive

Fill in: this test's call for O=[N+]([O-])[O][Sn]([O][Sn]([O][N+](=O)[O-])([c]1ccccc1)[c]1ccccc1)([c]1ccccc1)[c]1ccccc1 is ___
inactive

Fill in: this test's call for Nc1ccc(N=Nc2ccc(-c3ccc(O)cc3)cc2)c2ccc(S(=O)(=O)O)cc12 is ___
inactive

Fill in: this test's call for Cc1c2cc[n+](CCO)cc2c(C)c2c1[nH]c1ccc(O)cc12 is ___
inactive

Fill in: this test's call for COc1cc([C@@H]2c3cc4c(cc3[C@@H](NC(=O)NO)[C@H]3COC(=O)[C@H]23)OCO4)cc(OC)c1O is ___
inactive
